Kd listing for selected molecules.
Target: T1, recombinant human CD14 (B294801, histidine tagged) (Homo sapiens, UniProt P08571)
T1 construct: His; purchased Shanghai BaiYing Biotechnology Co., Ltd B294801 (Batch number 20200518A22)
T1 sequence (P08571 20-345): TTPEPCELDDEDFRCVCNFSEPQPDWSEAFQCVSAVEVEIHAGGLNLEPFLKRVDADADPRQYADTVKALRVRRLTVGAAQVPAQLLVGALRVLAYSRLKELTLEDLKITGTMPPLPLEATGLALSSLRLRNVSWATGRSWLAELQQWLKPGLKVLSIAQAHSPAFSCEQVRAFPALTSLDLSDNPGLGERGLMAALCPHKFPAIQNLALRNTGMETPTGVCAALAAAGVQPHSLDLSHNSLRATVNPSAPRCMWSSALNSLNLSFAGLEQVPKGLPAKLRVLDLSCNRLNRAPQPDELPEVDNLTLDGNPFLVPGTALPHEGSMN
Experiment: Biacore 8K kinetic and affinity test of humanized antibodies (Example 8)
Assay type: binding
Conditions: Biacore 8K, KD=koff/kon, analyte B294801 0.78125-25 nM, capture 1 μg/mL
Answer with a number only, understood to be in nM.

# molecule, units-label, Kd
data = [
    ("D6DD3D014: humanized anti-CD14 antibody; VH SEQ ID NO: 53, VL SEQ ID NO: 55 (antibody, V domains shown) VH: QLQLQESGPGLVKPSETLSLTCTVSGGSISSDSAWNWIRQPPGKGLEWIGYISYSGSTSYNPSLKSRVTISRDTSKNQFSLKLSSVTAADTAVYYCVRGLRFAYWGQGTLVTVSS VL: DIQLTQSPSSLSASVGDRVTITCRASESVDSYVNSFLHWYQQKPGKAPKLLIYRASNLQSGVPSRFSGSGSRTDFTLTISSLQPEDVATYYCQQSNEDPYTFGQGTKLEIK", "nM", 1.8),
]

// below: Kd requested for another molecule
Entry D6DD3D008: humanized anti-CD14 antibody; VH SEQ ID NO: 29, VL SEQ ID NO: 31 (antibody, V domains shown) VH: QVQLQESGPGLVKPSETLSLTCTVSGGSISSDSAWNWIRQPPGKGLEWIGYISYSGSTSYNPSLKSRVTISRDTSKNQFSLKLSSVTAADTAVYYCVRGLRFAYWGQGTLVTVSS VL: DIVLTQSPDSLAVSLGERATINCRASESVDSYVNSFLHWYQQKPGQPPKLLIYRASNLQSGVPDRFSGSGSRTDFTLTISSLQAEDVAVYYCQQSNEDPYTFGQGTKLEIK , Kd reported as 1.57
